Where these numbers come from: PubChem BioAssay (NCI)

- protocol: NCI Yeast Anticancer Drug Screen. Data for the sgs1 strain (AID 173);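 note: 0% = growth of vehicle-only control cultures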
- settings: S. cerevisiae sgs1 mutant, at 33.0 µM
- Description: Growth inhibition of yeast strains with defined genetic alterations is measured as a screen for potential anti-cancer activity. Selected strains with alterations in DNA damage repair or cell cycle control were exposed to compounds and growth inhibition was measured relative to vehicle treated controls. The strain used in this assay is sgs1
This is part of a sample that, as a whole, favours compounds with a hit. Of some 79,000 tested, about 15% had one in any assay. Active and inactive are the calls of the source. Cut-off read from the data, not from the text of the source: active = growth inhibition above about 70%; inactive = the rest.
Respond using exactly one of the listed classes: yes = active, no = inactive

Reference set, count: 3
# molecule, category
data = [
    ("O=[N+]([O-])c1oc2ccc3ccccc3c2c1CCO", "yes"),
    ("NC1=NCC(c2ccc(Cl)cc2)O1 (stereo unspecified)", "no"),
    ("OC(c1ccc(Br)cc1)C(Cl)(Cl)Cl (stereo unspecified)", "yes"),
]

Returns: the outcome recorded for CC(C)CC(NC(=O)C(N)C(C)C)C(=O)NC(CCCCN)C(=O)Nc1ccc(N(CCCl)CCCl)cc1 (stereo unspecified) in this assay.
no

// repeat for Oc1cccnc1[Se] and report
yes

Next entry: COc1ccc(OC)c(/C=C/[N+](=O)[O-])c1
no

###

- protocol: NCI Yeast Anticancer Drug Screen. Data for the mec2-1 strain (AID 157)
- settings: S. cerevisiae mec2-1 strain, at 50.0 µM (retest, dose inferred, filed as 5.0), hits give high values
Compounds without any hit were thinned out: in the full panel of roughly 79,000, 15% have a hit.
measured_attribute: growth inhibition (%)
Form entry: value (%) — number only.

// worked examples, growth inhibition included
# molecule, result_units, assay_value
data = [
    ("C[CH2][Sn]([Cl])([CH2]C)[O][Sn]([CH2]C)([CH2]C)[O][Sn]([Cl])([CH2]C)[CH2]C", "%", 84),
    ("Cc1cc(N(CCCl)CCCl)ccc1CN1CCCN(Cc2ccc(N(CCCl)CCCl)cc2C)C1c1ccc(N(CCCl)CCCl)cc1C", "%", 99),
    ("O=[N+]([O-])[O-].O=[N+]([O-])[O-].[Au].[Au].c1ccc([P-]c2ccccc2)cc1.c1ccc([P-]c2ccccc2)cc1", "%", 95),
    ("O=C([O][Hg][CH2]C1CC(O)CC([CH2][Hg][O]C(=O)c2ccccc2)O1)c1ccccc1 (stereo unspecified)", "%", 99),
    ("O=[N+]([O-])c1csc([N+](=O)[O-])c1", "%", 99),
]

Entry CC1CCC2(NC1)OC1CC3C4CCC5CC(OC6OC(CO)C(OC7OC(CO)C(O)C(OC8OCC(O)C(O)C8O)C7OC7OC(CO)C(O)C(O)C7O)C(O)C6O)CCC5(C)C4CCC3(C)C1C2C (stereo unspecified) has what growth inhibition?
97

Next up: ClCCN(CCCl)c1ccc(C2N(Cc3ccc(N(CCCl)CCCl)cc3Cl)CCCN2Cc2ccc(N(CCCl)CCCl)cc2Cl)cc1
99

And then Br[C](Br)(Br)[Hg][c]1ccccc1 , what is it?
99

Now give it for COC1C(O)C(C)OC(OC2C(Oc3cccc4c(O)c5c(=O)oc6ccc(C)c7c(=O)oc(c34)c5c67)OC(C)C(O)C2O)C1O (stereo unspecified) too.
15

Now try N=P(c1ccccc1)(c1ccccc1)c1ccccc1 (tested in a mixture with another compound) .
25

Would you kindly repeat that for O=C1c2ccccc2[Se](=O)N1c1ccccc1 (stereo unspecified) ?
99
